- System: N140
- measurement-description: qHTS profiling for inhibitors of Plasmodium falciparum proliferation (AID 504749); also: nearly all actives have a fitted effect of over 60% in size
- test-settings: P. falciparum in erythrocytes, SYBR Green DNA, 72 h; series mostly up to 28.7 µM
Records with an inconclusive call do not appear. Active and inactive are the calls of the source. Calls follow the shape of the dose curve; as a rule, active = well fitted inhibition curve with a large enough effect; inconclusive = small, poorly fitted or top-dose-only effect; inactive = flat fitted curve, though single readings scatter.
Outcomes: Yes = active, No = inactive

# molecule, label
records = [
    ("C[C@H](O)[C@@H]1C(=O)N2C(C(=O)O)=C(SCCN=CN)C[C@@H]12", "No"),
    ("C=C1/C(=C\\C=C2/CCC[C@]3(C)[C@@H]([C@H](C)/C=C/[C@@H](O)C4CC4)CC[C@@H]23)C[C@@H](O)C[C@@H]1O", "No"),
    ("CC1=C(c2ccc(NN=C(C#N)C#N)cc2)NNC(=O)C1", "No"),
    ("CC(=O)NC[C@@H]1CN(c2ccc(N3CCOCC3)c(F)c2)C(=O)O1", "No"),
    ("CC1(C)C2CC[C@]1(C)[C@@H](O)C2", "No"),
    ("CO/N=C(/C(=O)N[C@@H]1C(=O)N2C(C(=O)O)=C(C[n+]3ccc(N)n3CCO)CS[C@H]12)c1csc(N)n1", "No"),
    ("CC[C@@]1(O)CC2CN(CCc3c([nH]c4ccccc34)[C@](C(=O)OC)(c3cc4c(cc3OC)N(C)C3[C@@](O)(C(=O)OC)C(OC(C)=O)[C@]5(CC)C=CCN6CC[C@@]43C65)C2)C1 (stereo partly drawn)", "Yes"),
    ("NC(C(=O)O)C(O)c1ccc(O)c(O)c1 (stereo not drawn)", "Yes"),
]

* * *

- Tested on: CP191
- measurement-description: qHTS profiling for inhibitors of Plasmodium falciparum proliferation (AID 504749); also: nearly all actives have a fitted effect of over 60% in size
- test-settings: P. falciparum in erythrocytes, SYBR Green DNA, 72 h; series mostly up to 28.7 µM
Results filed as inconclusive are left out. Activity calls are given as the source filed them. The call rests on the fitted dose curve; in most records, active means well fitted inhibition curve with a large enough effect; inconclusive means small, poorly fitted or top-dose-only effect; inactive means flat fitted curve, though single readings scatter.
Outcome codes: active, inactive

# molecule, label
data = [
    ("CC1(C)OC[C@@H]2O[C@@]3(C(=O)O)OC(C)(C)O[C@@H]3[C@@H]2O1", "inactive"),
    ("CCC(C(=O)C(C)C(O)C(C)CCc1ccc(C)c(O)c1C(=O)O)C1OC(CC)(C2CC[C@@](O)(CC)C(C)O2)CC1C (stereo not given in full)", "active"),
    ("O=c1[nH]c(=O)n(C2C[C@H](O)[C@@H](CO)O2)cc1C(F)(F)F (stereo not given in full)", "inactive"),
    ("CCCSS/C(CCO)=C(/C)N(C=O)Cc1cnc(C)nc1N", "inactive"),
    ("OCC(O)C(O)C(O)C(O)CO (stereo not given)", "inactive"),
]

* * *

- System: SC27B
- measurement-description: qHTS profiling for inhibitors of Plasmodium falciparum proliferation (AID 504749); also: nearly all actives have a fitted effect of over 60% in size
- test-settings: P. falciparum in erythrocytes, SYBR Green DNA, 72 h; series mostly up to 28.7 µM
Results filed as inconclusive are left out. Calls of active or inactive are those of the source. Calls come from the whole dose curve; as a rule, active = well fitted inhibition curve with a large enough effect; inconclusive = small, poorly fitted or top-dose-only effect; inactive = flat fitted curve, though single readings scatter.
Labels: 1 (yes) = active, 0 (no) = inactive

# compound, target-desc, label
records = [
    ("Cc1cncc(C(=O)O)[n+]1[O-]", "SC27B", "0 (no)"),
    ("CC(O)C1CCC2C3CCC4CC(O)CCC4(C)C3CCC12C (stereo unspecified)", "SC27B", "0 (no)"),
    ("C=NC(C(=O)NC1C(=O)N2C1SC(C)(C)C2C(=O)O)c1ccccc1 (stereo unspecified)", "SC27B", "0 (no)"),
    ("CCC(C)C(N)C(=O)O (stereo unspecified)", "SC27B", "0 (no)"),
    ("C/C(=C(/CCOC(=O)C(C)C)SS/C(CCOC(=O)C(C)C)=C(\\C)N(C=O)Cc1cnc(C)nc1N)N(C=O)Cc1cnc(C)nc1N", "SC27B", "0 (no)"),
    ("OCC1O[C@@H](O[C@@H]2C(CO)OC(O)C(O)C2O)C(O)C(O)C1O (stereo partly specified)", "SC27B", "0 (no)"),
    ("CC(=O)NC1[C@H]([C@H](O)[C@H](O)CO)OC(C(=O)O)=C[C@H]1N=C(N)N (stereo partly specified)", "SC27B", "0 (no)"),
    ("O=C(O)[C@H]1C[C@@H](CP(=O)(O)O)CCN1", "SC27B", "0 (no)"),
    ("Cc1cnc(NC(=O)C2C(=O)c3ccccc3S(=O)(=O)N2C)s1 (stereo unspecified)", "SC27B", "0 (no)"),
    ("OC[C@@H]1O[C@](CO)(O[C@H]2O[C@H](CO)[C@@H](O)[C@H](O)[C@H]2O)[C@H](O)[C@H]1O", "SC27B", "0 (no)"),
    ("O=[N+]([O-])O[C@H]1CO[C@H]2[C@@H]1OC[C@H]2O", "SC27B", "0 (no)"),
    ("CC(=O)NC[C@@H]1CN(c2ccc(N3CCOCC3)c(F)c2)C(=O)O1", "SC27B", "0 (no)"),
    ("COc1cccc2c1C(=O)c1c(O)c3c(c(O)c1C2=O)C[C@@](O)(C(=O)CO)C[C@@H]3OC1CC(N)C(O)C(C)O1 (stereo partly specified)", "SC27B", "1 (yes)"),
    ("O=C1[C@@H]2C[C@@H]3C[C@H]1C[C@@](O)(C3)C2", "SC27B", "0 (no)"),
    ("CC1OC(OC2C(O)CC(OC3C(O)CC(OC4CCC5(C)C(CCC6C5CCC5(C)C(C7=CC(=O)OC7)CCC65O)C4)OC3C)OC2C)CC(O)C1O (stereo unspecified)", "SC27B", "0 (no)"),
    ("CCCCCCCCCCCC(=O)OCC(O)C1OCC(O)C1O (stereo unspecified)", "SC27B", "0 (no)"),
]

* * *

- measurement-description: Stat Signaling Pathway (AID 446);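 also: ME-180 cervical cancer cells given 40 pM IL-6 alongside compound; SIE-controlled beta-lactamase reporter measured as 460/530 nm FRET emission ratio; % is scaled to controls: 0 for no effect and ±100 for the full control effect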
- test-settings: ME-180 (cervical carcinoma) SIE beta-lactamase reporter, IL-6 stimulated, 5 h; at 17.2 µM (top of the series) unless noted
Results filed as inconclusive are left out.

# compound, activity, negative = inhibition, %
data = [
    ("CCc1c(C(=O)O)[nH]c2ccc(Br)cc12", -0.02),
    ("Cc1cc2c(c(=O)o1)C(CC(C)C)C(C#N)=C(N)O2 (stereo not drawn)", 1.38),
    ("CCOC(=O)c1c(C)n(C)c2ccc(OC)c(NC(=O)CN3CCSCC3)c12", -8.37),
    ("CC(C)C(C(=O)Nc1ncn[nH]1)N1C(=O)c2ccccc2C1=O (stereo not drawn)", -1.14),
    ("COc1ccc(N2CCN(c3nc4c(c(=O)[nH]c(=O)n4C)n3CCCc3ccccc3)CC2)cc1", -11),
    ("O=C(O)CC(NCc1ccco1)C(=O)OCCc1ccccc1 (stereo not drawn)", 0.0661),
    ("Cc1nc(NCCO)c(C#N)c2c1COC(C)(C)C2", 4.18),
    ("CC(=O)Oc1ccccc1C1OCCN1C(C)=O (stereo not drawn)", 17),
    ("COc1ccc(OCC(O)CN2C(=O)NC(C)(C)C2=O)cc1 (stereo not drawn)", 9.74),
    ("Cc1nc(Nc2ncc3c(n2)CC(C)(C)CC3=O)nc2ccccc12", -25),
    ("Nc1c(C(=O)NCC2CCCO2)c2nc3ccccc3nc2n1/N=C/c1ccncc1 (stereo not drawn)", -9.64),
    ("COC(=O)c1ccc(CSc2ncnc3c2sc2nc(N4CCOCC4)c4c(c23)CCCC4)o1", 25.6),
    ("CC(C)c1cc(NCCN2CCOCC2)n2c(nc3ccccc32)c1C#N", 9.84),
    ("Cc1ccc2c(=O)c(CN(C)C3CCN(C)CC3)c(C)[nH]c2c1C", 5.33),
    ("CCCCC(CCC(=O)Nc1ccc(C(=O)OCC)cc1)C(=O)O (stereo not drawn)", 3.27),
    ("CCOC(=O)NC(O)C(=O)c1cccs1 (stereo not drawn)", 3.85),
    ("O=c1[nH]c(CN2CCCCC2)nc2c1C1(CCCC1)Cc1ccccc1-2", -7.96),
    ("COc1ccc(CNC(=O)[C@H](C)NC(=O)C2CCN(S(=O)(=O)c3ccc(C)cc3)CC2)cc1", 2.4),
    ("COC(=O)CSC1=C(C#N)C(=O)NC2(CCCCC2)S1", 3.53),
    ("CCN(CC)CCCn1c(C)cc2c(c1=O)C(c1cccc(Cl)c1)C(C#N)=C(N)O2 (stereo not drawn)", -2.98),
    ("O=C(NC1CCS(=O)(=O)C1)N1CCCCC1 (stereo not drawn)", 9),
    ("CCCC1C2C(=O)N(c3ccccc3OC)C(=O)C2ON1c1ccccc1 (stereo not drawn)", 0.927),
    ("CCCCNC(=O)N1CCOCCOCCN(C(=O)NCCCC)CCOCCOCC1", -1.16),
]
